So I've got a bunch of compounds here, and I need their growth inhibition values.
assay_comment: NCI Yeast Anticancer Drug Screen. Data for the bub3 strain (AID 167)
reported_conditions: S. cerevisiae bub3 mutant strain, at 50.0 µM, stronger effect = higher value
Compounds without any hit were thinned out: in the full panel of roughly 79,000, 15% have a hit.
Supply the numeric figure in %, leaving out any unit text.

input: Supply measured growth inhibition of CN(C)/N=N/c1nc(Cc2ccccc2)[nH]c1C(N)=O in your reply.
output: 96.5

input: Supply measured growth inhibition of CC(C)C1=C(O)C2=C(C(=O)C1=O)C1(C)CCCC(C)(C)C1C(O)C2OC=O (stereo unspecified) in your reply.
output: 92.5

input: Supply measured growth inhibition of CS(=O)(=O)c1cc(=O)c2ccccc2s1 in your reply.
output: 31.6

input: Supply measured growth inhibition of COc1ccc2c(c1)CCC/C2=N\NS(=O)(=O)c1c(C)cc(C)cc1C in your reply.
output: 54.8

input: Supply measured growth inhibition of Cc1cc(Cl)nc2ccc(Cc3ccc4nc(Cl)cc(C)c4c3)cc12 in your reply.
output: 23.4

input: Supply measured growth inhibition of Fc1ccc(NC(=S)SCc2ccc(Cl)c(Cl)c2)c(F)c1 in your reply.
output: 99

input: Supply measured growth inhibition of CC(N1CCOCC1)C(O)(c1ccccc1)c1ccccn1 (stereo unspecified) in your reply.
output: -42.4

input: Supply measured growth inhibition of CC(=N/NC(=S)NCC(C)C)/C(C)=N\Nc1ccc(Cl)cc1 in your reply.
output: 93.7

input: Supply measured growth inhibition of Clc1ccc(C2=Nc3ccccc3SC(c3ccc(Cl)c(Cl)c3)C2)c(Cl)c1 (stereo unspecified) in your reply.
output: 70.4

input: Supply measured growth inhibition of O=C(O)c1ccc([N+](=O)[O-])cc1.[Ag] in your reply.
output: 99.2

input: Supply measured growth inhibition of N#CC#Cc1cccc(C#CC#N)c1 in your reply.
output: 98.9

input: Supply measured growth inhibition of O=Cc1nc2c3cccnc3ccc2n1Cc1ccccc1 in your reply.
output: 57.4

input: Supply measured growth inhibition of CC(Nc1ccc(Cl)c(Cl)c1)c1ccncc1 (stereo unspecified) in your reply.
output: 86

input: Supply measured growth inhibition of Cc1cc(NC(=S)SCc2ccc(Cl)cc2)ccc1Br in your reply.
output: 91.2

input: Supply measured growth inhibition of O=C(CC1(O)CCCCC1)OC1CCCC1 in your reply.
output: -58.9

input: Supply measured growth inhibition of Oc1ccc(CNC2CCCCC2)cc1 in your reply.
output: 37.4

input: Supply measured growth inhibition of CN(C)CCNC(=O)c1cccc2ccc(-c3ccc(-c4ccccc4)cc3)nc12 in your reply.
output: 99.1

input: Supply measured growth inhibition of Cc1ccc(O)c(C(c2cc(C)ccc2O)c2ccccc2Cl)c1 in your reply.
output: 98.5

input: Supply measured growth inhibition of COc1cc(NCCCCCNC(C)C)c2ncc(C)c(C)c2c1 in your reply.
output: 79

input: Supply measured growth inhibition of Oc1c(Br)cc(Br)cc1-c1ccccc1 in your reply.
output: 99.3

input: Supply measured growth inhibition of COc1cc(OC)c(C(c2cc3c(cc2O)OCO3)N2CCOCC2)c(OC)c1 (stereo unspecified) in your reply.
output: 18.8
